# gcPBM binding intensity (ln) annotations
test system: PfAP2-EXP AP2 domain (GST-tagged); assay: gcPBM binding intensity (ln(normalized median fluorescence intensity)); higher = stronger DNA binding
The full ranking holds about 25,000 sequences; the median of “ln(normalized median fluorescence intensity)” is about 8.6, and the highest 2% start at about 10. Shown is part of a subset that was picked to be rich in the highest values.
Readout Name: gcPBM binding intensity (ln)

1) TTGTAAGAAAAACACACACACACATATATATATATA [CACACA_site795] ... 10.1
2) TTTTTTTTTTTTTTATGTACGAAAGAAAAGCACATA [XGTACX_site8261] ... 8.57
3) AACAGACGAAGACACACACACATATATATATATATA [CACACA_site1020] ... 10.2
4) GTAAGAAACAGACACACACACATATATATATATATA [CACACA_site794] ... 10.2
5) TATAAATATACACCCACACACATATATAAATAAATA [CACACA_site7717] ... 8.93

----------
test system: PfAP2-EXP AP2 domain (GST-tagged); experiment: gcPBM binding intensity (ln(normalized median fluorescence intensity)); higher = stronger DNA binding
The full ranking holds about 25,000 sequences; the median of “ln(normalized median fluorescence intensity)” is about 8.6, and the highest 2% start at about 10. The list comes from a sample in which the highest values are over-represented; it also holds close analogues and randomly drawn sequences.
Would you mind labelling by gcPBM binding intensity (ln)? At or over 9 is met, under is not met.

1. CATATACACCAACACACACACACACCCACAAAAAAA [CACACA_site496] ... not met
2. AAGTTGGAAAGGTTATGTACTTATTTTTTAAAATAA [XGTACX_site204] ... not met
3. AAAAAAATAATATAAATAATGAAAAGATATAAATAA [GTGCAC_negctrl_site432] ... not met
4. TATAAATATAAATACACACACACACGCCAAAGCGTA [CACACA_site6181] ... not met
5. TATATATATATATACACACACACACCCCAAAGCGTA [CACACA_site64] ... met

----------
system: PfAP2-EXP AP2 domain (GST-tagged); test: gcPBM binding intensity (ln(normalized median fluorescence intensity)); higher = stronger DNA binding
In all, about 25,000 sequences were measured (“ln(normalized median fluorescence intensity)”: median about 8.6, highest 2% from about 10 on). For the sample, the highest values were picked, then their nearest neighbours and some sequences at random.
If the reported gcPBM binding intensity (ln) equals or exceeds 9, assign 1. If not, assign 0.

1. TTTTTATATATATTCTCACACACTTTTTATTTTAAC [CACACA_site657] ... 0
2. ATTTTATTTTCTCACACACACATATATATATATATA [CACACA_site5781] ... 1
3. TATATATATATAAGCACACAAACAAAAAAAATTATA [CACACA_site3897] ... 1
4. ATTATATATGTATAAATATGCTATATATATATATAT [GTGCAC_negctrl_site430] ... 1
5. TATTTATTCTCCAACACACACACATATATTTATATA [CACACA_site7376] ... 0
6. AAAAAAAAAAAATTCACACACATATAAAAAATTAAG [CACACA_site728] ... 0
7. ATATAAATATAAATATATATGTATAAATATAAATAT [CACACA_negctrl_site247] ... 0
8. ATATATTTTATACATACACACATATATATATTTTTT [CACACA_site3940] ... 0
9. AAAATTAAATTATAAGCACACACATATATATATATA [CACACA_site9105] ... 1
10. AAAAAAAAATGAAAAGAAAAAAAAAGAAAAAAGGGA [CACACA_negctrl_site287] ... 0
11. TATATAAACATATAAACATGCAATATATATATGTTA [TGCATGCA_site765] ... 0
12. ATATTTATGAAGTTCACACATATATATATATATATA [CACACA_site5954] ... 1
13. AAAAAAAAAAAAAAAAGGGGGGGAGGGATTGAAAAA [CACACA_negctrl_site193] ... 1
14. ATAAAAAAAAATAGCACACATAAATATATTATATAT [CACACA_site767] ... 0
15. ATAAAAATATTATAAGCACACATATATATATATATA [CACACA_site8781] ... 1
16. TTTTAAATAAATCATGCATGCACATATAATTATATT [TGCATGCA_site151] ... 1
